# SYSTEM_TESTED: Solute carrier family 12 member 5 (Homo sapiens) (UniProt Q9H2X9)
# Sequence (Q9H2X9 whole entry, looked up): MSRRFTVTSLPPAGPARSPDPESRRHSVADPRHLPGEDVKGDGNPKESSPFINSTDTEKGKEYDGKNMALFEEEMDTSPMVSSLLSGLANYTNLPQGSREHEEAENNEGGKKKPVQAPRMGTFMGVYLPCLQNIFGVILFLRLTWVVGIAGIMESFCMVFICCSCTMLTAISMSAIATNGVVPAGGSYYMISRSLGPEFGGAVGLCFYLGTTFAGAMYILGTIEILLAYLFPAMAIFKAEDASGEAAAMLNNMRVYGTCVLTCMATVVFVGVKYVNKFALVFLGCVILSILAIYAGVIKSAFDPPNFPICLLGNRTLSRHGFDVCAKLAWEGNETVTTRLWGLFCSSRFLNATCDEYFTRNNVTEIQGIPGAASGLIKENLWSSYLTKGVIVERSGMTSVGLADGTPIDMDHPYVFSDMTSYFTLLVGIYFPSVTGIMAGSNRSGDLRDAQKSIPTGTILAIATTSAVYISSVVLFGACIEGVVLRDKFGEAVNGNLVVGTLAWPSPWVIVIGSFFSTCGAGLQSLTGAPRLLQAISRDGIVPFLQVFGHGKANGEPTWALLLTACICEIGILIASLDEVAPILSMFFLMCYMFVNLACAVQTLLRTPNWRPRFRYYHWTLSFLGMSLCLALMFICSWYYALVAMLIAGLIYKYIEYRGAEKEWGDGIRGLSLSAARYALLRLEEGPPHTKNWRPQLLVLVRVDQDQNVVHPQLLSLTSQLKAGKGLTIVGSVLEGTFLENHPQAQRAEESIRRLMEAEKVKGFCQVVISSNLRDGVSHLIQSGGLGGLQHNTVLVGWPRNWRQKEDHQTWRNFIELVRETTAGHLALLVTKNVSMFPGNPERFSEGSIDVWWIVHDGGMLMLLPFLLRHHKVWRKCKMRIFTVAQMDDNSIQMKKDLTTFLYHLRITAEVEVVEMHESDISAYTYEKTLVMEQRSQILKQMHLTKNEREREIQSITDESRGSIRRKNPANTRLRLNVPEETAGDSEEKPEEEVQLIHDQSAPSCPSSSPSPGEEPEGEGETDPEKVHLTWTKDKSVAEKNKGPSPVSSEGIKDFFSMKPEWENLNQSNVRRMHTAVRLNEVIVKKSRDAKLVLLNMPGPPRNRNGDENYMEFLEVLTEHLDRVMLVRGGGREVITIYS
# ASSAY_TEXT: modulation of human KCC2 ion transport – cell-based, HEK293 KCC2, FluoZin-2 fluorescence, MLSMR, primary screen (AID 1456);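 note: slope of fluorescence scaled to starting intensity during 10 to 20 s after thallium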
# CONDITIONS_USED: KCC2 cells, thallium flux FluoZin-2 fluorescence; at 10 µM
In all, about 190,000 compounds went through this assay and about 4,100 (2.2%) were called active. This is one part of a sample in which actives are shown more often than they occur.
ASSAY_METRIC: B-score of Tl+ flux slope (higher = more flux/activation; lower = inhibition)

>  <MOLECULE>
O=C1CC(c2cccc(F)c2)C2=C(CCCC2=O)N1 (stereo unspecified)

>  <SYSTEM_TESTED>
Solute carrier family 12 member 5 (Homo sapiens) (UniProt Q9H2X9)

>  <EXPERIMENTAL_VALUE>
-0.124

$$$$
>  <MOLECULE>
CC(=O)NC(=S)Nc1ccc(NC(=S)NC(=O)c2ccc([N+](=O)[O-])cc2)cc1

>  <SYSTEM_TESTED>
Solute carrier family 12 member 5 (Homo sapiens) (UniProt Q9H2X9)

>  <EXPERIMENTAL_VALUE>
0.484

$$$$
>  <MOLECULE>
O=C(CNCc1ccco1)Nc1cc(S(=O)(=O)N2CCOCC2)ccc1N1CCCC1

>  <SYSTEM_TESTED>
Solute carrier family 12 member 5 (Homo sapiens) (UniProt Q9H2X9)

>  <EXPERIMENTAL_VALUE>
-0.873

$$$$
>  <MOLECULE>
COc1ccc(CNC(=O)C(Cc2ccccc2)n2cccc2)cc1 (stereo unspecified)

>  <SYSTEM_TESTED>
Solute carrier family 12 member 5 (Homo sapiens) (UniProt Q9H2X9)

>  <EXPERIMENTAL_VALUE>
-2.15

$$$$
>  <MOLECULE>
Cc1nnsc1C(=O)NCc1c(F)cccc1Cl

>  <SYSTEM_TESTED>
Solute carrier family 12 member 5 (Homo sapiens) (UniProt Q9H2X9)

>  <EXPERIMENTAL_VALUE>
0.221

$$$$
>  <MOLECULE>
Nc1ccc(N=Nc2ccccc2Cl)c(N)n1

>  <SYSTEM_TESTED>
Solute carrier family 12 member 5 (Homo sapiens) (UniProt Q9H2X9)

>  <EXPERIMENTAL_VALUE>
-0.811

$$$$
>  <MOLECULE>
O=C(CNCc1cccs1)Nc1cc(S(=O)(=O)N2CCCC2)ccc1Cl

>  <SYSTEM_TESTED>
Solute carrier family 12 member 5 (Homo sapiens) (UniProt Q9H2X9)

>  <EXPERIMENTAL_VALUE>
-3.68

$$$$
>  <MOLECULE>
CCCc1nc2c(c(=O)c3ccccc3n2C)c(=O)n1-c1cc(C)cc(C)c1

>  <SYSTEM_TESTED>
Solute carrier family 12 member 5 (Homo sapiens) (UniProt Q9H2X9)

>  <EXPERIMENTAL_VALUE>
-2.43

$$$$
>  <MOLECULE>
COc1ccc(CNC(=O)CCn2cccc2)cc1

>  <SYSTEM_TESTED>
Solute carrier family 12 member 5 (Homo sapiens) (UniProt Q9H2X9)

>  <EXPERIMENTAL_VALUE>
7.58

$$$$
>  <MOLECULE>
CCOc1cc2[nH]c(=O)n(CCC(=O)NCc3ccc(OC)cc3)c(=O)c2cc1OCC

>  <SYSTEM_TESTED>
Solute carrier family 12 member 5 (Homo sapiens) (UniProt Q9H2X9)

>  <EXPERIMENTAL_VALUE>
0.0101

$$$$
>  <MOLECULE>
S=C(Nc1cccc(Cl)c1)Nc1ccc2cn[nH]c2c1

>  <SYSTEM_TESTED>
Solute carrier family 12 member 5 (Homo sapiens) (UniProt Q9H2X9)

>  <EXPERIMENTAL_VALUE>
-0.0612

$$$$
